TEST_TARGET: StOASS-B (Salmonella typhimurium, UniProt P29848)
Construct: made in house; host or cells: E. coli
Sequence (P29848 whole entry): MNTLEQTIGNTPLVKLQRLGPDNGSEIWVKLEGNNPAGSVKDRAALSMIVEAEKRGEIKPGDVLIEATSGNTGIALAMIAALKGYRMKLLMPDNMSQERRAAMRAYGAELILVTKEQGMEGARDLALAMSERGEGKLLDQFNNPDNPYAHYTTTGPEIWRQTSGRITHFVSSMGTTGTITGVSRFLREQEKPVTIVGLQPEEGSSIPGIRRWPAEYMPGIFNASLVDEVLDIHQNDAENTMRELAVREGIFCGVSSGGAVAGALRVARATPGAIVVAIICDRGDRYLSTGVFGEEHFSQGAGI
METHOD_DESCRIPTION: Steady-state enzyme activity assay, discontinuous ninhydrin cysteine determination
Assay type: biochemical
STUDY_CONDITIONS: read-out: OASS-B IC50; 1 mM OAS, 0.6 mM Na2S, 6 nM OASS, 100 mM HEPES pH 7.0, 1% DMSO
pIC50: −log10 of the molar value.

QUERY_SMILES	pIC50
Cc1ccc(C[C@]2(C(=O)NCc3ccccc3)C[C@H]2c2ccccc2)cc1	< 4.00

* * *

TEST_TARGET: StOASS-A (Salmonella typhimurium)
Sequence (P0A1E3 whole entry): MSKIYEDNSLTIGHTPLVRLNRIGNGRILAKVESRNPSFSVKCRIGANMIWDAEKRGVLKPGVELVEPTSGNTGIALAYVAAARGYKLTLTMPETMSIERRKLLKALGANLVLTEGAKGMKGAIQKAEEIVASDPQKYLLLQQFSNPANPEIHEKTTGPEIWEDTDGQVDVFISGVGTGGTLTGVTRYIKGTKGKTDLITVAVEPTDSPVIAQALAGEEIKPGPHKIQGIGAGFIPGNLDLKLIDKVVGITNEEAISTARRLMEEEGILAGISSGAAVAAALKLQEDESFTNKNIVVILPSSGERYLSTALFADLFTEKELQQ
pKd: −log10 of the molar value.
Listing of recorded pKd by entry.

MOLECULE	pKd
O=C(O)C1(Cn2cncn2)CC1c1ccccc1 (stereo not shown)	4.74
O=C(O)C1(Cn2cccc2)CC1c1ccccc1 (stereo not shown)	6.30
c1ccc(C[C@]2(c3nnn[nH]3)C[C@H]2c2ccccc2)cc1	4.05
Cc1ccc(CC2(C(=O)O)CC2c2ccc(CNC(C)C)cc2)cc1 (stereo not shown)	3.81
O=C(O)C1(Cn2ccnc2)CC1c1ccccc1 (stereo not shown)	5.12
O=C(O)C1(Cc2ccncc2)CC1c1ccccc1 (stereo not shown)	4.62
O=C(O)C1(Cn2cccn2)CC1c1ccccc1 (stereo not shown)	5.82
Cc1ccc(C[C@@]2(C(=O)O)C[C@H]2c2ccccc2)cc1 [II, reference compound]	7.52
Cc1ccc(CC2(C(=O)O)CC2c2ccc(N)cc2)cc1 (stereo not shown)	5.85
Cc1ccc(CC2(C(=O)O)CC2c2ccc([N+](=O)[O-])cc2)cc1 (stereo not shown)	4.21

* * *

Listing of recorded pKd by entry.
TEST_TARGET: StOASS-B (Salmonella typhimurium)
Construct: made in house; host or cells: E. coli
METHOD_DESCRIPTION: Direct fluorimetric titration of PLP cofactor fluorescence (dissociation constant)
Format: binding
pKd: −log10 of the molar value.
READOUT: pKd

COMPOUND	TEST_TARGET	MEASURED_NUMBER
O=C(O)C1(Cn2cncn2)CC1c1ccccc1 (centres unmarked) [Compound 50]	StOASS-B (Salmonella typhimurium)	3.60
O=C(O)C1(Cn2ccnc2)CC1c1ccccc1 (centres unmarked) [Compound 47]	StOASS-B (Salmonella typhimurium)	3.40
Cc1ccc(CC2(C(=O)O)CC2c2ccc([N+](=O)[O-])cc2)cc1 (centres unmarked) [Compound 8]	StOASS-B (Salmonella typhimurium)	3.84
Cc1ccc(CC2(C(=O)O)CC2c2ccc(N)cc2)cc1 (centres unmarked) [Compound 12]	StOASS-B (Salmonella typhimurium)	5.24
Cc1ccc(C[C@@]2(C(=O)O)C[C@H]2c2ccccc2)cc1 [II, reference compound]	StOASS-B (Salmonella typhimurium)	6.30
O=C(O)C1(Cc2ccncc2)CC1c1ccccc1 (centres unmarked) [Compound 33]	StOASS-B (Salmonella typhimurium)	3.56
O=C(O)C1(Cn2cccc2)CC1c1ccccc1 (centres unmarked) [Compound 49]	StOASS-B (Salmonella typhimurium)	4.66
O=C(O)C1(Cn2cccn2)CC1c1ccccc1 (centres unmarked) [Compound 48]	StOASS-B (Salmonella typhimurium)	4.02

* * *

Listing of recorded pIC50 by entry.
TEST_TARGET: StOASS-B (Salmonella typhimurium, UniProt P29848)
Construct: made in house; host or cells: E. coli
METHOD_DESCRIPTION: Steady-state enzyme activity assay, discontinuous ninhydrin cysteine determination
Format: biochemical
pIC50: −log10 of the molar value.

COMPOUND	TEST_TARGET	pIC50
Cc1ccc(C[C@]2(C(=O)NCC3CCCO3)C[C@H]2c2ccccc2)cc1 (stereo partly drawn) [Compound 22]	StOASS-B (Salmonella typhimurium, UniProt P29848)	< 4.00
Cc1ccc(C[C@]2(C(=O)NCc3cccs3)C[C@H]2c2ccccc2)cc1 [Compound 19]	StOASS-B (Salmonella typhimurium, UniProt P29848)	< 4.00
C#CCNC(=O)[C@@]1(Cc2ccc(C)cc2)C[C@H]1c1ccccc1 [Compound 21]	StOASS-B (Salmonella typhimurium, UniProt P29848)	< 4.00
Cc1ccc(C[C@]2(C(=O)NCc3nccn3C)C[C@H]2c2ccccc2)cc1 [Compound 20]	StOASS-B (Salmonella typhimurium, UniProt P29848)	< 4.00
Cc1ccc(C[C@]2(C(=O)N(C)C3CCOCC3)C[C@H]2c2ccccc2)cc1 [Compound 16]	StOASS-B (Salmonella typhimurium, UniProt P29848)	3.86
CCN1CCCC1CNC(=O)[C@@]1(Cc2ccc(C)cc2)C[C@H]1c1ccccc1 (stereo partly drawn) [Compound 17]	StOASS-B (Salmonella typhimurium, UniProt P29848)	< 4.00
